IC50 reference
Biological target: UniProt:Q9Y572
Sequence (Q9Y572 whole entry, species assumed): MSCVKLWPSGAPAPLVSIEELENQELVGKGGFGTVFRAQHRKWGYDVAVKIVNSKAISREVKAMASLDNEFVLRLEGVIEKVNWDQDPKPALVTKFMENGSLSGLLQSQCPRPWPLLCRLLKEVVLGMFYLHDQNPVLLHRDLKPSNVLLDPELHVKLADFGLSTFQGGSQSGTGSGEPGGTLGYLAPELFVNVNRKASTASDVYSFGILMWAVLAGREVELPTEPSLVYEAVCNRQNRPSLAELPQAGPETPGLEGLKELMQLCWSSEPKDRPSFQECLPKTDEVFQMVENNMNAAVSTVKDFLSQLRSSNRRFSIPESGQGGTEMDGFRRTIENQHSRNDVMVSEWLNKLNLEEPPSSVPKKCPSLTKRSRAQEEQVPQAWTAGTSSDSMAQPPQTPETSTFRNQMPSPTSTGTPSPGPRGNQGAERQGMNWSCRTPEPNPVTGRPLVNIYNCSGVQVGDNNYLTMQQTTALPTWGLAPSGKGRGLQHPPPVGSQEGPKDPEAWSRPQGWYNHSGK
Assay: RIPK3 HTRF Kinase Assay
Format: binding
Conditions: RIPK3 1 nM; HTRF probe 23 nM; 60 min at room temperature; read-out: IC50 for Inhibition of RIPK3
Metric name: IC50

INSERT INTO measurements (smiles_entry, result) VALUES
  ('CS(=O)(=O)c1cccc(-c2c3c(n(Cc4ccc(F)cc4C#N)c2-c2ccncc2)CCNC3=O)c1', '100 to 15000 nM'),
  ('O=C1NCCc2c1c(-c1ccc(F)cc1)c(-c1ccncc1)n2Cc1ccc(F)cc1C(F)(F)F', '< 30 nM'),
  ('N#Cc1cc(F)ccc1Cn1c2c(c(-c3ccc(F)c(F)c3)c1-c1ccncc1)C(=O)NCC2', '< 30 nM'),
  ('COC(=O)c1cccc(-c2c3c(n(Cc4cc(C)nn4C)c2-c2ccncc2)CCNC3=O)c1', '100 to 15000 nM');
